target_under_test: human glucagon (GCG) receptor (Homo sapiens)
Construct: expressed in transfected cells; host or cells: PSC-HEK-293
Sequence (P47871 26-477): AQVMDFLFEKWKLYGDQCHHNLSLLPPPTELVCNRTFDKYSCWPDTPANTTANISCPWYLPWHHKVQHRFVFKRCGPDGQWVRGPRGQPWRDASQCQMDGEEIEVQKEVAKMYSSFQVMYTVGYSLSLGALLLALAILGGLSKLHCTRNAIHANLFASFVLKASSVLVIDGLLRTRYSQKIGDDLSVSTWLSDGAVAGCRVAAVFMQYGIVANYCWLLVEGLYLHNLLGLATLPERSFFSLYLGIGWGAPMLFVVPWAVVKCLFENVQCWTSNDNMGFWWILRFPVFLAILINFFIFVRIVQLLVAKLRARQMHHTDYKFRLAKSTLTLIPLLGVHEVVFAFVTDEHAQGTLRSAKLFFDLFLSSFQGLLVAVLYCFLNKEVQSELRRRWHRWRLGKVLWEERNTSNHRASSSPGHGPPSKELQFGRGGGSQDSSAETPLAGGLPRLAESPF
experiment_description: HTRF cAMP assay in HEK-293 cells expressing human glucagon receptor
Format: cell-based
setup_conditions: HEK-293 cells; read-out: HTRF cAMP EC50 Human GCGR
pEC50: −log10 of the molar value. Bridge positions count the residues as written; N and C are the ends. Ends that are not written are not given here.
Could you please report measured pEC50 for the items listed next?

I'd like to know its pEC50. The substance in question is HGEGTFTSDLSKQCEEERVQLFIEWLKATGPSSGKPPPKPGC-NH2 (disulfide 14-42) [Ab P035]
< 8.00

I'd like to know its pEC50. The substance in question is HGEGTFTSDLSILCEKRAVHEFIEWLKAGGPSSGKPPPKPGC-NH2 (disulfide 14-42) [Ab P034]
< 8.00

I'd like to know its pEC50. The substance in question is HGEGTFTSDLSILCEKRAVHEFIEWLIAGGPSSGKPPPKPGC-NH2 (disulfide 14-42) [Ab P033]
< 8.00
